// reported inhibition at 3.3 µM per item
measured.target: Human recombinant enteropeptidase (Homo sapiens)
Construct: purchased ITSI-Biosciences LLC #REN-260
test.name: Human enteropeptidase inhibitory activity (Test Example 1)
Format: biochemical
measurement.parameters: 3.3 μM test compound; inhibition rate from fluorescence intensity at 2 hours after the start of the reaction; read-out: 3.3 μM Inhibition

- compound: "N=C(N)Nc1ccc2c(c1)CCCOc1c(cccc1C(=O)N(CC(=O)O)[C@@H](Cc1ccccc1)C(=O)O)OC2=O [Example 133]"
  inhibition at 3.3 µM / %: 100
- compound: "N=C(N)Nc1ccc2c(c1)CCCOc1c(cccc1C(=O)NC(CC(=O)O)CC(=O)O)OC2=O [Example 11]"
  inhibition at 3.3 µM / %: 101
- compound: "N=C(N)Nc1ccc2c(c1)CCCOc1c(cccc1C(=O)O)OC2=O [Example 29]"
  inhibition at 3.3 µM / %: 101
- compound: "N=C(N)Nc1ccc2c(c1)CCCCCCc1c(cccc1C(=O)N[C@@H](CC(=O)O)C(=O)O)OC2=O [Example 77]"
  inhibition at 3.3 µM / %: 99

###

measured.target: Human recombinant enteropeptidase (Homo sapiens, UniProt P98073)
Construct: purchased ITSI-Biosciences LLC #REN-260
Sequence (P98073 whole entry): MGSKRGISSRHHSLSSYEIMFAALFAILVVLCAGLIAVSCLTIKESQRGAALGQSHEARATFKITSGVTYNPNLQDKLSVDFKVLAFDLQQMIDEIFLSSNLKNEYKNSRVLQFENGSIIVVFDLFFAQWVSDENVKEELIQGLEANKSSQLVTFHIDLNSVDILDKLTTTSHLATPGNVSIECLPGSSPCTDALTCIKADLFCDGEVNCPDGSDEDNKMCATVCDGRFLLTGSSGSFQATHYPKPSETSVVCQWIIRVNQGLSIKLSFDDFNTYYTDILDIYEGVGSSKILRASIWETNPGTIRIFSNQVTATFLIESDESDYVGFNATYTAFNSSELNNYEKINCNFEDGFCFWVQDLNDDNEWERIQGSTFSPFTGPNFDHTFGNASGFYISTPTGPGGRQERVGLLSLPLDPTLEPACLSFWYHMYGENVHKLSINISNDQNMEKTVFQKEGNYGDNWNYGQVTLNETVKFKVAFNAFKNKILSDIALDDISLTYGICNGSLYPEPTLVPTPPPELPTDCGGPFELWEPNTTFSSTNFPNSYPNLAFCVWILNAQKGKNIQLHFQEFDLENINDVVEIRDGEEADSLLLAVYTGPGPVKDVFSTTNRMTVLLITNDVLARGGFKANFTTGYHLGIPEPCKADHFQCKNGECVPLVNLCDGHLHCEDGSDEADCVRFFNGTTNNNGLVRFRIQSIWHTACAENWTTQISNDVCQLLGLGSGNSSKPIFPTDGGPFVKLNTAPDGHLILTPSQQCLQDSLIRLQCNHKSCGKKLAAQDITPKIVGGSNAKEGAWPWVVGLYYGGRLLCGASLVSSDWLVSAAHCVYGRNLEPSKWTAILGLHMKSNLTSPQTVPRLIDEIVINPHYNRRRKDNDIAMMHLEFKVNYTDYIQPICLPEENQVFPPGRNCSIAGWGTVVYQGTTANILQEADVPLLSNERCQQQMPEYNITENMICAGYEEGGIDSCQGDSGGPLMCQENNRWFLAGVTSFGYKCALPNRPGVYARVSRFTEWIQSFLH
test.name: Human enteropeptidase inhibitory activity (Test Example 1)
Type: biochemical
measurement.parameters: 3.3 μM test compound; inhibition rate from fluorescence intensity at 2 hours after the start of the reaction; read-out: 3.3 μM Inhibition
Counter-ions that a name gives are not always drawn.

- molecule: "N=C(N)Nc1ccc2c(c1)CCCOc1c(cccc1C(=O)N1CCC[C@H]1C(=O)O)OC2=O"
  inhibition at 3.3 µM: "101%"
- molecule: "N=C(N)Nc1ccc2c(c1)CCCOc1c(ccc(CCC(=O)O)c1C(=O)N(CC(=O)O)Cc1cccc(C(=O)O)c1)OC2=O"
  inhibition at 3.3 µM: "99%"
- molecule: "N=C(N)Nc1ccc2c(c1)CCOc1c(cccc1C(=O)NCCS(=O)(=O)O)OC2=O"
  inhibition at 3.3 µM: "101%"
- molecule: "N=C(N)Nc1ccc2c(c1)COc1c(cccc1C(=O)N[C@@H](CC(=O)O)C(=O)O)OC2=O [Example 19, trifluoroacetate]"
  inhibition at 3.3 µM: "99%"
- molecule: "N=C(N)Nc1ccc2c(c1)CCCOc1c(cccc1C(=O)NCCS(=O)(=O)O)OC2=O"
  inhibition at 3.3 µM: "102%"
- molecule: "N=C(N)Nc1ccc2c(c1)CCCCc1cc3c(cc1OC2=O)OC[C@H]3CC(=O)N[C@@H](CC(=O)O)C(=O)O"
  inhibition at 3.3 µM: "98%"
- molecule: "N=C(N)c1ccc2c(c1)CCc1cc(CCC(=O)N[C@@H](CC(=O)O)C(=O)O)ccc1C(=O)O2"
  inhibition at 3.3 µM: "59%"

###

measured.target: Human recombinant enteropeptidase (Homo sapiens)
Construct: purchased ITSI-Biosciences LLC #REN-260
test.name: Human enteropeptidase inhibitory activity (Test Example 1)
Assay type: biochemical
measurement.parameters: 3.3 μM test compound; inhibition rate from fluorescence intensity at 2 hours after the start of the reaction; read-out: 3.3 μM Inhibition
Structures can show the parent of a compound that is named as a salt.
// reported inhibition at 3.3 µM per item

- compound: "N=C(N)Nc1ccc2c(c1)CCCOc1c(ccc(CCC(=O)N(CC(=O)O)CC(=O)O)c1C(=O)O)OC2=O"
  inhibition at 3.3 µM: "100%"
- compound: "N=C(N)Nc1ccc2c(c1)CCc1c(CCC(=O)N[C@@H](CC(=O)O)C(=O)O)cccc1OC2=O [Example 57, trifluoroacetate]"
  inhibition at 3.3 µM: "100%"
- compound: "N=C(N)Nc1ccc2c(c1)CCCOc1cc(C(=O)N[C@H](CC(=O)O)C(=O)O)ccc1OC2=O (stereo in doubt)"
  inhibition at 3.3 µM: "100%"
- compound: "N=C(N)Nc1ccc2c(c1)CCCOc1c(ccc(CCC(=O)NC(CC(=O)O)CC(=O)O)c1C(=O)O)OC2=O"
  inhibition at 3.3 µM: "100%"
- compound: "N=C(N)Nc1ccc2c(c1)CCCCc1c(cccc1C(=O)N[C@@H](CC(=O)O)C(=O)O)OC2=O"
  inhibition at 3.3 µM: "101%"
- compound: "N=C(N)Nc1ccc2c(c1)CCCOc1c(cccc1C(=O)N[C@@H](CC(=O)O)C(=O)O)OC2=O"
  inhibition at 3.3 µM: "101%"
- compound: "N=C(N)Nc1ccc2c(c1)CCCOc1c(cccc1C(=O)N(Cc1cccc(C(=O)O)c1)[C@@H](CC(=O)O)C(=O)O)OC2=O"
  inhibition at 3.3 µM: "100%"
- compound: "CC1CCCc2cc(NC(=N)N)ccc2C(=O)Oc2cccc(C(=O)N[C@@H](CC(=O)O)C(=O)O)c21 (some centres unmarked)"
  inhibition at 3.3 µM: "102%"
- compound: "N=C(N)Nc1ccc2c(c1)OCCc1cc(CCC(=O)N[C@@H](CC(=O)O)C(=O)O)ccc1OC2=O [Example 50, trifluoroacetate]"
  inhibition at 3.3 µM: "101%"
- compound: "N=C(N)Nc1ccc2c(c1)CCCOc1c(cccc1C(=O)N(CC(=O)O)Cc1cccc(CN(CC(=O)O)CC(=O)O)n1)OC2=O"
  inhibition at 3.3 µM: "100%"
- compound: "N=C(N)Nc1ccc2c(c1)CCCOc1c(cccc1C(=O)N[C@@H](CO)C(=O)O)OC2=O"
  inhibition at 3.3 µM: "101%"
- compound: "N=C(N)Nc1ccc2c(c1)CCCCc1c(cccc1C(=O)NCCS(=O)(=O)O)OC2=O"
  inhibition at 3.3 µM: "98%"
- compound: "N=C(N)Nc1ccc2c(c1)CCCOc1c(cccc1C(=O)NCP(=O)(O)O)OC2=O"
  inhibition at 3.3 µM: "102%"
- compound: "N=C(N)Nc1ccc2c(c1)CCCOc1c(ccc(CCC(=O)O)c1C(=O)N(CC(=O)O)Cc1cccc(CN(CC(=O)O)CC(=O)O)c1)OC2=O"
  inhibition at 3.3 µM: "101%"

###

// reported inhibition at 3.3 µM per item
measured.target: Human recombinant enteropeptidase (Homo sapiens, UniProt P98073)
Construct: purchased ITSI-Biosciences LLC #REN-260
test.name: Human enteropeptidase inhibitory activity (Test Example 1)
Type: biochemical
measurement.parameters: 3.3 μM test compound; inhibition rate from fluorescence intensity at 2 hours after the start of the reaction; read-out: 3.3 μM Inhibition
Where a name gives a salt, the structure may show the parent alone.
value.kind: inhibition at 3.3 µM

- compound: "N=C(N)Nc1ccc2c(c1)CCCOc1c(cccc1C(=O)N(CCC(=O)O)CCC(=O)O)OC2=O [Example 9]"
  experimental.result: "101%"
- compound: "N=C(N)Nc1ccc2c(c1)CCCOc1c(cccc1C(=O)N1CCC[C@H]1C(=O)N[C@@H](CC(=O)O)C(=O)O)OC2=O [Example 99]"
  experimental.result: "100%"
- compound: "CN(CC(=O)N(C)[C@@H](CC(=O)O)C(=O)O)C(=O)c1cccc2c1OCCCc1cc(NC(=N)N)ccc1C(=O)O2 [Example 105]"
  experimental.result: "101%"
- compound: "N=C(N)Nc1ccc2c(c1)CCCOc1c(cccc1C(=O)N(CCC(=O)O)Cc1cccc(C(=O)O)c1)OC2=O [Example 134]"
  experimental.result: "100%"
- compound: "N=C(N)Nc1ccc2c(c1)CCc1ccc(CCC(=O)N[C@@H](CC(=O)O)C(=O)O)cc1OC2=O [Example 55]"
  experimental.result: "98%"
- compound: "N=C(N)Nc1ccc2c(c1)OCCCc1c(CCC(=O)N[C@@H](CC(=O)O)C(=O)O)cccc1OC2=O [Example 79]"
  experimental.result: "101%"
- compound: "N=C(N)Nc1ccc2c(c1)CCCCOc1c(cccc1C(=O)N[C@@H](CC(=O)O)C(=O)O)OC2=O [Example 82]"
  experimental.result: "102%"
- compound: "Cc1cc2c(c(C(=O)N[C@@H](CC(=O)O)C(=O)O)c1)CCCCc1cc(NC(=N)N)ccc1C(=O)O2 [Example 72]"
  experimental.result: "101%"
- compound: "C[C@@H](C(=O)O)N(Cc1cccc(C(=O)O)c1)C(=O)c1cccc2c1OCCCc1cc(NC(=N)N)ccc1C(=O)O2 [Example 135]"
  experimental.result: "100%"
- compound: "N=C(N)c1ccc2c(c1)CCCCc1cc(C(=O)N[C@@H](CC(=O)O)C(=O)O)ccc1C(=O)O2 [Example 69, trifluoroacetate]"
  experimental.result: "100%"
- compound: "COc1ccc(C[C@H](NC(=O)c2c(CCC(=O)N(CC(=O)O)CC(=O)O)ccc3c2OCCCc2cc(NC(=N)N)ccc2C(=O)O3)C(=O)O)cc1 [Example 130]"
  experimental.result: "99%"
- compound: "N=C(N)Nc1ccc2c(c1)CCCOc1c(cccc1C(=O)N(CC(=O)O)CC(=O)O)OC2=O [Example 14]"
  experimental.result: "101%"
- compound: "N=C(N)Nc1ccc2c(c1)CCCCOc1c(CCC(=O)N[C@@H](CC(=O)O)C(=O)O)cccc1OC2=O [Example 44, trifluoroacetate]"
  experimental.result: "96%"
- compound: "N=C(N)Nc1ccc2c(c1)CCCOc1c(cccc1C(=O)NCCC(=O)O)OC2=O [Example 88]"
  experimental.result: "102%"
